Organism: Rattus norvegicus
test_method_notes: Open TG-GATES - Regimen: Single
Assay type: toxicity, organism-based, Sprague-Dawley
Set-up: regimen Single, gender Male, age 6 weeks
condition_summary: in vivo, po, 0 mg/kg, 3 h, tissue Blood, route gavage, dose level Control
Attribute: PT
recorded_metric: PT (s)

# molecule, value_observed
rows = [
    ("CN(C)CCCN1c2ccccc2CCc2ccc(Cl)cc21 [CLOMIPRAMINE]", 13.6),
    ("CN(C)CCCN1c2ccccc2CCc2ccccc21 [IMIPRAMINE]", 15.9),
    ("COc1cc2c(c(OC)c1OC)-c1ccc(OC)c(=O)cc1[C@@H](NC(C)=O)CC2 [COLCHICINE]", 11.8),
    ("NNC(=O)c1ccncc1 [ISONIAZID]", 11.8),
    ("CN1C(=O)CN=C(c2ccccc2)c2cc(Cl)ccc21 [DIAZEPAM]", 12.4),
    ("CC/C(=C(\\c1ccccc1)c1ccc(OCCN(C)C)cc1)c1ccccc1 [TAMOXIFEN]", 12.2),
    ("Cc1ccc(C)c(OCCCC(C)(C)C(=O)O)c1 [GEMFIBROZIL]", 12.3),
]
